# system: hK-RasG12C - hSOS1 interaction (Homo sapiens)
# Construct: hSOS1 (amino acid 564-1049); made in house; host or cells: E. coli BL21 (DE3)
# Sequence (Q07889 with tags, fused parts or gaps): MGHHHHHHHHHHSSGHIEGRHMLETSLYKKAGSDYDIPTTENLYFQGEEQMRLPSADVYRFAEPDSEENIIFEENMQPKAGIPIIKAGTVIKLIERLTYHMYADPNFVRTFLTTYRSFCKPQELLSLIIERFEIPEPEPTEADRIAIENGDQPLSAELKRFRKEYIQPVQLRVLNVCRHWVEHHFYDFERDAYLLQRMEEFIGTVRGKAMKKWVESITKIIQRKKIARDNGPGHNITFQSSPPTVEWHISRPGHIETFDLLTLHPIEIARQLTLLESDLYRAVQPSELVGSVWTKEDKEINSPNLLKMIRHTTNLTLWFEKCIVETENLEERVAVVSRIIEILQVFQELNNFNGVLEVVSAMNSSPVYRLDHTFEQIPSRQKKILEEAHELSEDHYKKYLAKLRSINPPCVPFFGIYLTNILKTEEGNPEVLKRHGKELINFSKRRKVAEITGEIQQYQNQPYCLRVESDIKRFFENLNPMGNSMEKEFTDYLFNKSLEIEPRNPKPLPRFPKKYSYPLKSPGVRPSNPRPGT
# measurement-notes: Biochemical Assay 1: hK-RasG12C interaction assay with hSOS1 (HTRF)
# Format: binding
# assay-context: values expressed as IC50
# Source text: Biochemical Assay 1: hK-RasG12C Interaction Assay with hSOS1 This assay quantifies the equilibrium interaction of human SOS1 (hSOS1) with human K-Ras^G12C (hK-RasG12C). Detection of the interaction is achieved by measuring homogenous time-resolved fluorescence resonance energy transfer (HTRF) from antiGST-Europium (FRET donor) bound to GST-K-RasG12C to anti-6His-XL665 bound to His-tagged hSOS1 (FRET-acceptor). […]
pIC50: −log10 of the molar value.
Measured pIC50, listed per entry for reference.
quantity-measured: pIC50

[[record]]
compound = "Cc1nc(N[C@H](C)c2cccc(Br)c2)c2cc(NCCS(C)(=O)=O)ncc2n1"
measured_number = 6.24

[[record]]
compound = "CNCc1ccccc1-c1ccc(C(C)Nc2nc(C)nc3cnc(F)cc23)s1 (stereo not shown)"
measured_number = 5.04

[[record]]
compound = "CC(=O)NCCNc1cc2c(N[C@H](C)c3cccc(Br)c3)nc(C)nc2cn1"
measured_number = 6.01

[[record]]
compound = "Cc1nc(NC(C)c2ccc(-c3ccccc3CN(C)C)s2)c2cc(NCCN3CCOCC3)ncc2n1 (stereo not shown)"
measured_number = 7.41


----------
Parameter: IC50. Scope: all listed entries.
# system: hK-RasG12C - hSOS1 interaction (Homo sapiens, UniProt Q07889)
# Construct: hSOS1 (amino acid 564-1049); made in house; host or cells: E. coli BL21 (DE3)
# measurement-notes: Biochemical Assay 1: hK-RasG12C interaction assay with hSOS1 (HTRF)
# Format: binding
# assay-context: values expressed as IC50
quantity-measured: IC50 (nM)

[[record]]
molecule = "Cc1nc(NC(C)c2ccc(-c3ccccc3CN(C)C)s2)c2cc(N3CCC3)ncc2n1 (centres unmarked) [Example 71]"
quantity_measured = "IC50"
measured_number = 51.1

[[record]]
molecule = "CCOc1ccc2nc(C)nc(N[C@H](C)c3cccc(Br)c3)c2n1 [Example 29]"
quantity_measured = "IC50"
measured_number = 17400

[[record]]
molecule = "Cc1nc(N[C@H](C)c2cccc(Br)c2)c2nc(N3CCOCC3)ccc2n1 [Example 27]"
quantity_measured = "IC50"
measured_number = 2580

[[record]]
molecule = "Cc1nc(NC(C)c2ccc(-c3ccccc3CN(C)C)s2)c2cc(N3CC(NS(=O)(=O)c4ccccc4)C3)ncc2n1 (centres unmarked) [Example 94]"
quantity_measured = "IC50"
measured_number = 57.2

[[record]]
molecule = "Cc1nc(NC(C)c2ccc(-c3ccccc3CN(C)C)s2)c2cc(OCCCN(C)C)ncc2n1 (centres unmarked) [Example 72]"
quantity_measured = "IC50"
measured_number = 34.2

[[record]]
molecule = "Cc1nc(N[C@H](C)c2cccc(Br)c2)c2cc(OCC3CC3)ncc2n1 [Example 75]"
quantity_measured = "IC50"
measured_number = 4180

[[record]]
molecule = "Cc1nc(NC(C)c2ccc(-c3ccccc3CN(C)C)s2)c2cc(Oc3cccc(C4=NCCN4C)c3)ncc2n1 (centres unmarked) [Example 58]"
quantity_measured = "IC50"
measured_number = 117

[[record]]
molecule = "COc1cc2c(NC(C)c3cccc4c3cnn4C)nc(C)nc2cn1 (centres unmarked) [Example 14]"
quantity_measured = "IC50"
measured_number = 1650


----------
Recorded IC50, one value per entry.
# system: hSOS1 (hSOS1-mediated nucleotide exchange of hK-RasG12C) (Homo sapiens, UniProt Q07889)
# Construct: hSOS1 (amino acid 564-1049); made in house; host or cells: E. coli BL21 (DE3)
# measurement-notes: Biochemical Assay 2: hK-RasG12C activation assay by hSOS1 at high GTP concentration (HTRF nucleotide exchange)
# assay-context: high GTP (50 μM GTP)
quantity-measured: IC50 (nM)

[[record]]
compound = "Cc1nc(N[C@H](C)c2cccc(Br)c2)c2nc(N(C)C)ncc2n1"
units_symbol = "nM"
comparator = ">"
measured_number = 20000

[[record]]
compound = "COCCOc1ncc2nc(C)nc(N[C@H](C)c3cccc(Br)c3)c2n1"
units_symbol = "nM"
comparator = "="
measured_number = 3040

[[record]]
compound = "Cc1nc(N[C@H](C)c2cccc(Br)c2)c2cc(NCCS(C)(=O)=O)ncc2n1"
units_symbol = "nM"
comparator = "="
measured_number = 1340

[[record]]
compound = "Cc1nc(N[C@H](C)c2cccc(Br)c2)c2cc(NCCn3ccnc3)ncc2n1"
units_symbol = "nM"
comparator = "="
measured_number = 1030

[[record]]
compound = "COc1cc2c(N[C@H](C)c3cccc(Br)c3)nc(C)nc2cn1"
units_symbol = "nM"
comparator = "="
measured_number = 1230

[[record]]
compound = "CCOc1cc2c(N[C@H](C)c3ccc(C#N)cc3)nc(C)nc2cn1"
units_symbol = "nM"
comparator = "="
measured_number = 1010

[[record]]
compound = "CCOc1ncc2nc(C)nc(N[C@H](C)c3cccc(Br)c3)c2n1"
units_symbol = "nM"
comparator = "="
measured_number = 4450

[[record]]
compound = "Cc1nc(NC(C)c2ccc(-c3ccccc3CN(C)C)s2)c2cc(OCCN(C)C)ncc2n1 (stereo not drawn)"
units_symbol = "nM"
comparator = "="
measured_number = 22.7

[[record]]
compound = "Cc1nc(NC(C)c2ccc(-c3ccccc3CN(C)C)s2)c2cc(N3CC(NC(=O)C4CCCCC4)C3)ncc2n1 (stereo not drawn)"
units_symbol = "nM"
comparator = "="
measured_number = 154

[[record]]
compound = "CC(=O)NCCNc1cc2c(N[C@H](C)c3cccc(Br)c3)nc(C)nc2cn1"
units_symbol = "nM"
comparator = "="
measured_number = 1060

[[record]]
compound = "COc1ccc2nc(C)nc(N[C@H](C)c3cccc(Br)c3)c2n1"
units_symbol = "nM"
comparator = ">"
measured_number = 20000

[[record]]
compound = "Cc1nc(N[C@H](C)c2ccc(F)cc2)c2cc(F)ncc2n1"
units_symbol = "nM"
comparator = "="
measured_number = 17900

[[record]]
compound = "Cc1nc(N[C@H](C)c2cccc(Br)c2)c2cc(Oc3cccc(O)c3)ncc2n1"
units_symbol = "nM"
comparator = "="
measured_number = 8660

[[record]]
compound = "Cc1nc(NC(C)c2ccc(-c3ccccc3CO)s2)c2cc(F)ncc2n1 (stereo not drawn)"
units_symbol = "nM"
comparator = ">"
measured_number = 20000

[[record]]
compound = "CCCOc1cc2c(NC(C)c3ccc(-c4ccccc4CN(C)C)s3)nc(C)nc2cn1 (stereo not drawn)"
units_symbol = "nM"
comparator = "="
measured_number = 32.8

[[record]]
compound = "Cc1nc(NC(C)c2ccc(-c3ccccc3CN(C)C)s2)c2cc(OCCCN(C)C)ncc2n1 (stereo not drawn)"
units_symbol = "nM"
comparator = "="
measured_number = 42.1

[[record]]
compound = "Cc1nc(NC(C)c2ccc(-c3ccccc3CN(C)C)s2)c2cc(NC3CCOCC3)ncc2n1 (stereo not drawn)"
units_symbol = "nM"
comparator = "="
measured_number = 223

[[record]]
compound = "COc1cc2c(NC(C)c3cccc4sccc34)nc(C)nc2cn1 (stereo not drawn)"
units_symbol = "nM"
comparator = "="
measured_number = 423


----------
# system: Epidermal Growth Factor Receptor (EGFR) (Homo sapiens)
# Sequence (P00533 25-1210): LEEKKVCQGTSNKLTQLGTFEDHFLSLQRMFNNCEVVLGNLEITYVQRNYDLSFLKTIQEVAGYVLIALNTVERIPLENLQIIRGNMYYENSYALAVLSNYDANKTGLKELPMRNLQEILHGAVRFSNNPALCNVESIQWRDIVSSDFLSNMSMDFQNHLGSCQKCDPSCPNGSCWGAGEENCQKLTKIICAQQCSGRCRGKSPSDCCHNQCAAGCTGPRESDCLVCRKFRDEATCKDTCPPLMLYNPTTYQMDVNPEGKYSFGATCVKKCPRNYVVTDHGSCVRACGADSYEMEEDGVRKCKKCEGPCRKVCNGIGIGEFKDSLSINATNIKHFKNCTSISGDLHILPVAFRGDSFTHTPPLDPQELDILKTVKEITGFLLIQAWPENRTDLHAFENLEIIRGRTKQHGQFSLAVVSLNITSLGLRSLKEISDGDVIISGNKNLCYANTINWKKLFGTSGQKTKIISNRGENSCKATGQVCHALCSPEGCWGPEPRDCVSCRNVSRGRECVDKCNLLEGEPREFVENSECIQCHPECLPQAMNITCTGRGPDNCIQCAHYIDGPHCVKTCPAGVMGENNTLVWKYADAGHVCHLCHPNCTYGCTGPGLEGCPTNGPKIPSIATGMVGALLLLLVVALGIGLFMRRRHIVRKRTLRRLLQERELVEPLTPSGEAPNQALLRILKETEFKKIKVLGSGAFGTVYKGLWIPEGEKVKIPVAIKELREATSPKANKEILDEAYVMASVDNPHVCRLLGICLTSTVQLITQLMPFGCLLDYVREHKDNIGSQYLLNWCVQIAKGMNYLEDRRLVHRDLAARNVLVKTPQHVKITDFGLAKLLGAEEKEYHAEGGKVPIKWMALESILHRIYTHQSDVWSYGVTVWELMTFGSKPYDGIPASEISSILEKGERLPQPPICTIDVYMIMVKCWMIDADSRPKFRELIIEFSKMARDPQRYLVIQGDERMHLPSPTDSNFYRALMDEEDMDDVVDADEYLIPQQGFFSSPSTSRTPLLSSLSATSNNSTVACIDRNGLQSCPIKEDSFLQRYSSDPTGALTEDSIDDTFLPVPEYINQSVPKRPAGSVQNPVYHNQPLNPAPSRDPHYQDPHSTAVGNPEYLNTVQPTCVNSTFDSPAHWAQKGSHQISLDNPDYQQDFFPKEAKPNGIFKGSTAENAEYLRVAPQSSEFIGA
quantity-measured: IC50

[[record]]
molecule = "Cc1nc(N[C@H](C)c2cccc(Br)c2)c2nc(Oc3ccccc3)ncc2n1"
result = "> 20 µM"

[[record]]
molecule = "CCOc1cc2c(N[C@H](C)c3cccc(S(C)(=O)=O)c3)nc(C)nc2cn1"
result = "> 20 µM"

[[record]]
molecule = "Cc1nc(N[C@H](C)c2cccc(Br)c2)c2cc(NCCN3CCOCC3)ncc2n1"
result = "> 20 µM"

[[record]]
molecule = "Cc1nc(NC(C)c2ccc(-c3ccccc3CN(C)C)s2)c2cc(N3CC(NC(=O)C4CCCCC4)C3)ncc2n1 (stereo not shown)"
result = "> 20 µM"

